The next entries give measured AC50 for UniProt P08684.
Sequence (P08684 whole entry): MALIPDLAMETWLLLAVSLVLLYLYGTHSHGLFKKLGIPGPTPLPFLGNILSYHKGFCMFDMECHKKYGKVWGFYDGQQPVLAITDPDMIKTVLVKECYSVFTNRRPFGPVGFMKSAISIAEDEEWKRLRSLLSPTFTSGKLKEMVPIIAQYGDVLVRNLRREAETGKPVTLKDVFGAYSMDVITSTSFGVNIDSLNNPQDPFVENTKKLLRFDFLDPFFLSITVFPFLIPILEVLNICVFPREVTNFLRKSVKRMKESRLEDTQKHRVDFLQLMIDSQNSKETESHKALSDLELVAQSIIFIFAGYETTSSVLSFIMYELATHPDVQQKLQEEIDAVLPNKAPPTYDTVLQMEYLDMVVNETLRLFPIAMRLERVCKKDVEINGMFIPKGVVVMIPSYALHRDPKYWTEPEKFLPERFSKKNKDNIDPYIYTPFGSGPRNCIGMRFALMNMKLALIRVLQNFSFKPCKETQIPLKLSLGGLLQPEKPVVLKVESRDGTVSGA

Qu. Provide AC50 value for the following molecule: COC(=O)[C@@]1(Cc2ccc(F)cc2)[C@@H]2C(=CC(=O)[C@H]2CC(=O)C(=O)N2CCCC2)CN1C(=O)c1ccccc1
Ans. 5.01 µM (inconclusive)

Qu. Determine its reported AC50: Cc1noc(C)c1C(=O)N1CCC2(CCN(Cc3ccncc3)CC2)CC1
Ans. 12.6 µM (inconclusive)

Qu. Output measured AC50 for this item: CCCCCCCCCOc1ccc2[nH]cc(CCN)c2c1
Ans. 39.8 µM (inconclusive)

Qu. Report measured AC50; entry is COC(=O)C1CCN(c2cc(=O)n(C3CCCCC3)c(=O)[nH]2)CC1
Ans. 14.1 µM (inconclusive)

Qu. Using the record for CCNc1ncc2nc(-c3ccc(OC)cc3)c(=O)n(CCC#N)c2n1 , state its measured AC50.
Ans. 15.8 µM (inconclusive)

Qu. Please report the measured AC50 for O=c1c(-c2cccc(Cl)c2)nc2cncnc2n1-c1ccccc1
Ans. 25.1 µM (inconclusive)

Qu. Given the molecule CCNc1ncc2nc(C)c(=O)n(CCc3ccccc3)c2n1 , write its reported AC50.
Ans. 15.8 µM (inconclusive)

Qu. Check the records and state AC50 for CC(C)CC1NC(=S)N(C2CCCCC2)C1=O (stereo unspecified)
Ans. 20 µM (inconclusive)

Qu. Return the recorded AC50 value; entry: CCOC(=O)Nc1ccc2c(c1)N(C(=O)CCN1CCN(C)CC1)c1ccccc1S2
Ans. 1.26 µM (inconclusive)

Qu. State its AC50: C[C@@H](C(=O)O)c1ccc(C(=O)c2ccccc2)s1
Ans. 12.6 µM (inconclusive)

Qu. Give the measured AC50 for N#CC(C#N)=Cc1ccc([N+](=O)[O-])c(O)c1
Ans. 1.58 µM (inconclusive)

---

- Target: Genome polyprotein (dengue virus type 2)
- Assay text: Dengue-2 NS5 methyltransferase inhibitors, primary screen, biochemical, confirmation dose response (AID 588689)
- Format: functional
Activity calls are given as the source filed them.
Property: IC50

Qu. Please give the documented IC50 of CN(c1ccccc1)c1ccc(/C=C(/CCC(=O)O)c2nc3ccccc3s2)cc1[N+](=O)[O-]
Ans. 48.5 µM (active)

Qu. Consider the molecule Cc1coc2c(O)cc3c(c12)OC1(N2CCCCC2)C(=O)NCCCC31 (stereo not given) and give its recorded IC50.
Ans. 27.4 µM (active)

Qu. Please give measured IC50 of the following entry: CCC(C(=O)O)N1C(=O)/C(=C/C(C)=C/c2ccccc2)SC1=S (stereo not given)
Ans. 37.8 µM (active)

Qu. // fetch IC50 given entry O=C1C(Cl)=C(N2CCOCC2)C(=O)N1c1cccc(Cl)c1
Ans. 13.6 µM (active)

Qu. Annotate the molecule CC(C(=O)Nc1ccc(O)cc1C(=O)O)N1C(=O)/C(=C\c2cccs2)SC1=S (stereo not given) with its measured IC50.
Ans. 47.9 µM (active)

Qu. Give IC50 for the following molecule: O=C1C(Cl)=C(N2CCOCC2)C(=O)N1c1ccccc1
Ans. 18.7 µM (active)

Qu. Answer with the recorded IC50 of CC1=NOC(=O)/C1=C\c1ccc(-c2ccc(Br)cc2C(=O)O)o1 only.
Ans. 20.1 µM (active)

Qu. Consider the molecule O=S(=O)(Nc1nc2ccccc2nc1NCc1ccco1)c1ccc(Cl)cc1 . State its measured IC50.
Ans. 91.9 µM (active)

Qu. Find the measured IC50 of COC1=C(Br)C(=O)c2nc(C)ccc2C1=O and report it.
Ans. 3.77 µM (active)

Qu. Read the entry CCCCCCCCSC1=CC(=O)C(OC)=C(OC)C1=O and write its reported IC50.
Ans. 12.5 µM (active)

---

Would you kindly list EC50 for each of these molecules?
- Target: Heat shock factor protein 1 (Mus musculus, UniProt P38532)
- Sequence (P38532 whole entry): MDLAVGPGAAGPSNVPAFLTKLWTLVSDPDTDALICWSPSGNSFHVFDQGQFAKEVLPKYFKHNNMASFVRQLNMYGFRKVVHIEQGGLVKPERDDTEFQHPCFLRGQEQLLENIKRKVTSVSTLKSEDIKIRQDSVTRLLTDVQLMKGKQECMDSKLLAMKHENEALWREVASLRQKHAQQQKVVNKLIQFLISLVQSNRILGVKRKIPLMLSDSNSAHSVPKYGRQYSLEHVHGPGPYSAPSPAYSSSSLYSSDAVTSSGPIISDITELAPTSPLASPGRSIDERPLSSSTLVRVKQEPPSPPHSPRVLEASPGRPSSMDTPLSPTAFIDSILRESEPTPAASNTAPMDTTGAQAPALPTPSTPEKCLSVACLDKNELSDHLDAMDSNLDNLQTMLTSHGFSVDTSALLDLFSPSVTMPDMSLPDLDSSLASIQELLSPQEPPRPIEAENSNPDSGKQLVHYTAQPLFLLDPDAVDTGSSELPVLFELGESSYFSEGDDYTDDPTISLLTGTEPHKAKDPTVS
- Assay text: inhibition of MG132-induced HSE-luciferase signal, confirmation, cell-based, NIH3T3, luminescence, dose retest (AID 2382);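 also: NIH3T3 fibroblasts with HSF1-driven luciferase reporter stressed by proteasome inhibitor MG132; luminescence from HSF1-driven luciferase expression after 8 hours of MG132 stress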
- Assay type: functional
Activity calls are given as the source filed them.

Qu. Give the value of EC50 reported for the following: COCCCNC(=O)c1cn(CC(C)C)c(=O)c2c1c1ccccc1n2C
Ans. > 195 µM (not active)

Qu. For the molecule Cc1cc(C(=O)COC(=O)C2CC2)c(C)n1-c1ccc(F)cc1 , report EC50.
Ans. 1.96 µM (active)

Qu. State its EC50: CCN(CC)S(=O)(=O)c1cc(C(=O)Nc2cc(C)on2)ccc1Cl
Ans. > 195 µM (not active)

Qu. Given Cc1nc(NC(=O)/C=C/c2ccc(Cl)cc2Cl)sc1C(=O)N(C)C , respond with its EC50.
Ans. > 195 µM (not active)

Qu. // fetch EC50 given entry CCCN=C(S)NC1CC2CCCC(C1)N2Cc1ccc(F)cc1 (stereo unspecified)
Ans. > 195 µM (not active)

Qu. Give the measured EC50 for O=C1CCCN1CCC1CCN(C(=O)Nc2ccccc2)CC1
Ans. > 195 µM (not active)

Qu. Please report EC50 for the following molecule: Cc1ccc(S(=O)(=O)NCCC(=O)N2CCN(S(=O)(=O)c3ccccc3)CC2)cc1C
Ans. > 195 µM (not active)

Qu. Return reported EC50. Input molecule: CC(C)c1ccc(NC(=O)CNC(=O)Cn2cnc3ccccc3c2=O)cc1
Ans. 60.8 µM (active)

Qu. Report measured EC50; entry is CC(Cc1ccccc1)C(=O)Nc1ccccc1 (stereo unspecified)
Ans. > 195 µM (not active)

Qu. Determine its reported EC50: Cn1c(=O)c2c(ncn2CC(=O)Nc2cccc(S(=O)(=O)Nc3ccccc3F)c2)n(C)c1=O
Ans. > 195 µM (not active)

Qu. Given the molecule COc1cc(NC(=O)c2cc(C)nc3ccccc23)cc(OC)c1 , write its reported EC50.
Ans. > 195 µM (not active)

---

- Target: UniProtKB P41145
- Sequence (P41145 whole entry): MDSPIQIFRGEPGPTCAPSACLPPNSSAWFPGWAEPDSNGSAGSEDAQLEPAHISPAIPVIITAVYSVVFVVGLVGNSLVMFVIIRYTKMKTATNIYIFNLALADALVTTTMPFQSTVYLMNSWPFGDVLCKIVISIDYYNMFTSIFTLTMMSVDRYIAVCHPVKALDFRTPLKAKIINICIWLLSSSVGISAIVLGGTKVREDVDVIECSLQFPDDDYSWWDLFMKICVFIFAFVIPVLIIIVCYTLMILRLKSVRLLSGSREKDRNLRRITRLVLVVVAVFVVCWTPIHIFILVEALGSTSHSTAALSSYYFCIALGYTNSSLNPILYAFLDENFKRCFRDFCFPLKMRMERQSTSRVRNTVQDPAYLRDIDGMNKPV
- Format: functional
Property: EC50 (µM)
Give a bare numeral; the unit µM is implied.

Qu. // output EC50; input Nc1ccc(C2(c3ccc(N)cc3)c3ccccc3-c3ccccc32)cc1 ; system UniProtKB P41145
Ans. 8.41

---

Task for the reader: assign each of the following molecules its reported EC50.
- Target: Delta-type opioid receptor (Homo sapiens, UniProt P41143)
- Sequence (P41143 whole entry): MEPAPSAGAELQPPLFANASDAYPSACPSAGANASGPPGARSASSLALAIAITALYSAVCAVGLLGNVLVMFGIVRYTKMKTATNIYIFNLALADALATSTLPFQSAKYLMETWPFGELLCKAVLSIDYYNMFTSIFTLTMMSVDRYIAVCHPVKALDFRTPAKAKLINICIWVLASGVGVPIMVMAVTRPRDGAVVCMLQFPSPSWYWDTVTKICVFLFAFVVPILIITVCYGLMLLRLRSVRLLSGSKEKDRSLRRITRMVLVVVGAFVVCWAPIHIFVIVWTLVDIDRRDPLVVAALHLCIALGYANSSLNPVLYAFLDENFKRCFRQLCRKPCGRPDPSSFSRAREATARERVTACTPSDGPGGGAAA
- Assay text: Counterscreen for agonists of heterodimerization of the mu 1 (OPRM1) and delta 1 (OPRD1) opioid receptors: Luminescence-based cell-based high throughput dose response assay to identify agonists of OPRD1 homodimerization. [Related pubchem assays (depositor defined):AID504326, AID504355, AID504692, AID504904, AID504905]
- Type: functional
Where a name gives a salt, the structure may show the parent alone. Activity calls are given as the source filed them.

Qu. Retrieve EC50 measured for C/C(=N/Nc1ccnc2cc(Cl)ccc12)c1ccc(N)cc1 and print it.
Ans. 29.5 µM (inactive)

Qu. Answer with the recorded EC50 of Cc1ccccc1[N+]1=C2SCCN2C(O)(c2ccccc2)C1 (stereo not given) only.
Ans. > 92.5 µM (inactive)

Qu. Query EC50 for CN(C)C(CNC(=O)c1ccc(C(F)(F)F)cc1)c1ccco1 (stereo not given)
Ans. 91 µM (inactive)

Qu. Assign EC50 to the following record: O=c1c2ccc(Cl)cc2[nH]c(=S)n1Cc1cccnc1
Ans. 43.2 µM (inactive)

Qu. Specify reported EC50 for the molecule shown: c1ccc(C2(N3CCCCC3)CCCCC2)cc1 [PHENCYCLIDINE HYDROCHLORIDE]
Ans. 33.6 µM (inactive)

---

- Assay text: cytotoxicity toward NIH3T3 fibroblasts, dose response, counter-screen, cell-based, ATP luminescence, mouse fibroblasts (AID 2010);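 also: cells exposed to compound for about 90 hours before reading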
- Assay type: functional
Property: EC50

Qu. Please give measured EC50 of the following entry: CCN(CC)S(=O)(=O)c1cnccc1N1CCN(c2cccc(Cl)c2)CC1
Ans. > 60 µM (not active)

Qu. Give recorded EC50. Cn1nc([N+](=O)[O-])nc1Sc1ccc(Cl)cc1
Ans. > 30 µM (not active)

Qu. Give a short answer stating reported EC50 for CSc1nc(N)nc(SCC(=O)C23CC4CC(CC(C4)C2)C3)c1C#N .
Ans. > 60 µM (not active)

---

- Target: Protein RecA (Mycobacterium tuberculosis, UniProt P9WHJ3)
- Assay text: Fluorescence Cell-Free Homogeneous Dose Retest to Identify Inhibitors of RecA-Intein Splicing Activity. [Related pubchem assays (depositor defined):AID2097, AID2223, AID489010, AID492950]
- Type: functional
Activity calls are given as the source filed them.
Outcomes you can answer with include only these: class 1 = active, class 0 = inactive

Qu. # lookup: test call for Cc1[nH]n(-c2ccccc2)c(=O)c1C(C[N+](=O)[O-])c1ccccc1Cl (stereo not drawn)
Ans. class 1

Qu. Hi, do you know how COc1cc(/C=N\NC(=O)c2ccccc2F)ccc1Oc1ccc([N+](=O)[O-])cn1 came out in this test?
Ans. class 0

Qu. Could you kindly confirm the outcome this assay logged for C/C(=N\NC(=O)CC#N)c1cc2ccccc2oc1=O ?
Ans. class 1

Qu. # fetch the recorded call for COCCN(C(=O)CCl)C(C(=O)NC1CCCCC1)c1ccccc1C (stereo not drawn) here
Ans. class 1

Qu. Tell me the recorded outcome of this test for Cc1nnc(NC(=O)c2nc(S(=O)(=O)Cc3ccccc3C)ncc2Cl)s1 .
Ans. class 0

Qu. Please indicate how the test categorized c1ccc(-c2nc(N3CCCCCC3)nc(-n3ccnc3)n2)cc1 .
Ans. class 0

Qu. # lookup: test call for CN1CCN(C(c2ccc(C(F)(F)F)cc2)c2cc(Cl)c3cccnc3c2O)CC1 (stereo not drawn)
Ans. class 1

Qu. How was O=[N+]([O-])c1ccc(S(=O)(=O)c2cccc(C(F)(F)F)c2)nc1 classified in this test?
Ans. class 1

Qu. Test call, this molecule: Cc1nnc(N/N=C/c2cccc(OCc3ccc(Cl)c(Cl)c3)c2)n1N
Ans. class 1

Qu. I would be grateful if you could indicate the recorded call for Cc1n[nH]c(O)c1C(c1ccccc1[N+](=O)[O-])C(C#N)C#N (stereo not drawn) .
Ans. class 1

Qu. Status in this test for COc1ccc(CNC(=O)C(c2ccc(C)o2)N(C(=O)c2snc(C(N)=O)c2N)c2ccccc2OC)cc1 (stereo not drawn) ?
Ans. class 0

Qu. Field: outcome | Entry: O=C1C(Cl)=C(N2CCOCC2)C(=O)N1c1cccc(Cl)c1
Ans. class 1

Qu. So what was the verdict on CCCc1n[nH]c2c1C(CCC)C(C#N)=C(N)O2 (stereo not drawn) in this test?
Ans. class 1

Qu. Kindly provide the recorded test outcome for the following molecule: CCOC(=O)c1nn(-c2ccc(C)cc2)c(=O)c2c(N)scc12
Ans. class 1

Qu. Hi, do you know how O=C(Oc1ccccc1C(=O)Nc1ccccc1)c1ccccc1Br came out in this test?
Ans. class 1

Qu. Field: outcome | Entry: CCOc1cc(C2C(C#N)=C(N)Oc3[nH]nc(-c4ccccc4)c32)ccc1O (stereo not drawn)
Ans. class 1

Qu. Which outcome did this test record for the molecule Cc1ccc(-c2nnc(Sc3nc4ccccc4o3)c3ccccc23)cc1 ?
Ans. class 1

Qu. How did this test come out for CCOc1ccc(-n2c(C)cc(C(=O)CCl)c2C)cc1 ?
Ans. class 1

Source of measurements: ChEMBL document CHEMBL1201862
